test system: adrenomedullin receptor (Homo sapiens, UniProt O60895+Q16602)
Sequence (Q16602 23-461): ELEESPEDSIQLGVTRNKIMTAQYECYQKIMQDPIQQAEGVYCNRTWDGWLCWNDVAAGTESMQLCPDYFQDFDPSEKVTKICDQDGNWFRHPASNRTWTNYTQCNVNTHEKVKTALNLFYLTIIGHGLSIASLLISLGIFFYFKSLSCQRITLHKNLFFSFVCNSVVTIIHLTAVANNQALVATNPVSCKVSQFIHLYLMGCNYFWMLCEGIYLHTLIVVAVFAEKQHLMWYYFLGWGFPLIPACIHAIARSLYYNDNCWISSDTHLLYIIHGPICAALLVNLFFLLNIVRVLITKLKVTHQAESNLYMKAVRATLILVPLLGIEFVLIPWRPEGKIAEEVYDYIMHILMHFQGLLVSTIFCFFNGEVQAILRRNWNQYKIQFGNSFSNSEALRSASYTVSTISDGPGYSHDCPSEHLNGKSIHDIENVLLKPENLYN
Sequence (O60895 43-175): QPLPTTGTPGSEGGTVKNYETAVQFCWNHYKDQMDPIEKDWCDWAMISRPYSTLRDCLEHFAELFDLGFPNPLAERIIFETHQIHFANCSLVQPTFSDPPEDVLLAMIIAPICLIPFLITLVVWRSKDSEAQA
assay overview: adrenomedullin (ADM) receptor binding assay
run conditions: Table 6
Bridge positions count the residues as written; N and C are the ends. Ends that are not written are not given here.
readout: IC50 (nM)

Field: example entries. Status: answers known.
{"columns": ["substance", "test system", "IC50, nM"],
 "data": [
  ["H-RVGCGNLSTCQVQNLSHRLWQLMGPAGRQDSAPVDPSSPHSY-NH2 (disulfide 4-10 (inferred)) [compound 22]", "adrenomedullin receptor (Homo sapiens, UniProt O60895+Q16602)", 19],
  ["H-TQAQLLRVGMVLGTMQVQNLSHRLWQLMGPAGRQDSAPVDPSSPHSY-NH2 [compound 25]", "adrenomedullin receptor (Homo sapiens, UniProt O60895+Q16602)", 120],
  ["TQAQLLRVGCNTATCQVQNLSHRLWQLMGPAGRQDSAPVDPSSPHSY-NH2 (disulfide 10-15 (inferred)) [compound 21]", "adrenomedullin receptor (Homo sapiens, UniProt O60895+Q16602)", 47],
  ["H-TQAQLLRVGCSNLSTCQVQNLSHRLWQLMGPAGRQDSAPVDPSSPHSY-NH2 (disulfide 10-16 (inferred)) [compound 20]", "adrenomedullin receptor (Homo sapiens, UniProt O60895+Q16602)", 36]
]}

1: H-GMVLGTMQVQNLSHRLWQLMGPAGRQDSAPVDPSSPHSY-NH2 [compound 26]
2: VQNLSHRLWQLMGPAGRQDSAPVDPSSPHSY-NH2 [compound 14]
3: TQAQLLRVGCVLGTCQVQNLSHRLWQLMGPAGRQESAPVEPSSPHSY-NH2 (disulfide 10-15 (inferred)) [compound 32]
Q. Arrange these 3 substances in increasing order of IC50. Use the labels to give the ranking in the order requested.
A. 3, 1, 2
(3: 7.1 nM, 1: 37 nM, 2: 59 nM)
